Please respond with reported IC50 for every item in the list.
# TESTED_SYSTEM: human TLR7 (Homo sapiens (Human), UniProt Q9NYK1)
# Sequence (Q9NYK1 27-1049): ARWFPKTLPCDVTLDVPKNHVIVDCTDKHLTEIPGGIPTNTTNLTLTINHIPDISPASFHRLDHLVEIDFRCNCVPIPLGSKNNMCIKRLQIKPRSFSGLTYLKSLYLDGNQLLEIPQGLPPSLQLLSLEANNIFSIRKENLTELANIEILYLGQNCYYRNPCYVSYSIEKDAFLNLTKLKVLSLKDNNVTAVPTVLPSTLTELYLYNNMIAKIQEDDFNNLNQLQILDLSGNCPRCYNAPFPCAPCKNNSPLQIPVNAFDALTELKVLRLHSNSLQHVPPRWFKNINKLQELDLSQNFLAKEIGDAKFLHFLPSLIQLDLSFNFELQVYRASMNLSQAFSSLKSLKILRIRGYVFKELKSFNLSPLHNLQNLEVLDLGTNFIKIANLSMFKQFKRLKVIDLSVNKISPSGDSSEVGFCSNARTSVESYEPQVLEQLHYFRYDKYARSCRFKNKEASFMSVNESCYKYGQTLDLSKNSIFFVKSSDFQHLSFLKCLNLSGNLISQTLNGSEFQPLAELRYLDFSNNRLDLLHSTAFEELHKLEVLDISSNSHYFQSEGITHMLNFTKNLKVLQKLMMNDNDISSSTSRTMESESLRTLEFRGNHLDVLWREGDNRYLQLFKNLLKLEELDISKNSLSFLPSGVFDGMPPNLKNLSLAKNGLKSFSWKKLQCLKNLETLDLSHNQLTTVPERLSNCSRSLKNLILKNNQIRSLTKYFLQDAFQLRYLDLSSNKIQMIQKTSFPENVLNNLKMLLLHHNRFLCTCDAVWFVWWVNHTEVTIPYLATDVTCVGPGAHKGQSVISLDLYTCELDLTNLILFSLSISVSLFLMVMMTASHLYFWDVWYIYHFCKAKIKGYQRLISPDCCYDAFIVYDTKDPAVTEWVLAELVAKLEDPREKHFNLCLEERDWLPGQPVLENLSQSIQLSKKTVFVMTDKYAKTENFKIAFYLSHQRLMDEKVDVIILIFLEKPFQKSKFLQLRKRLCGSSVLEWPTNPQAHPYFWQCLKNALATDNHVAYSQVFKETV
# PROTOCOL: TLR7 inhibition reporter assay (HEK-Blue cells, SEAP reporter, gardiquimod stimulation)
# Type: cell-based
# MEASUREMENT_CONDITIONS: HEK-Blue cells, gardiquimod 7.5 μM
Give a bare numeral; the unit µM is implied.

Return reported IC50; argument: Cc1cc(-c2[nH]c3ccc(C4CCN(C(C)CF)CC4)cc3c2C(C)C)ccn1 (stereo not drawn) [Example 864]
0.0167

Return reported IC50; argument: Cc1cc(-c2[nH]c3ccc(C4CCN(C5CCN(CC(C)C)CC5)CC4)cc3c2C)ccn1 [Example 810]
0.145

Return reported IC50; argument: Cc1cc(-c2[nH]c3ccc(C4CCN(C(=O)C(=O)N5CCN(C)CC5)CC4)cc3c2C(C)C)cc(C)n1 [Example 856]
0.0029

Return reported IC50; argument: CC(C)c1c(-c2ccnc(N)c2)[nH]c2ccc(C3CCN(Cc4cnc[nH]4)CC3)cc12 [Example 817]
0.224

Return reported IC50; argument: Cc1c(-c2ccncc2)[nH]c2ccc(C3CCN(C4CCN(C(C)C)CC4)CC3)cc12 [Example 843]
0.292

Return reported IC50; argument: Cc1cc(-c2[nH]c3ccc(C4CCN(Cc5cnc[nH]5)CC4)cc3c2C(C)C)c(C)cn1 [Example 824]
0.0138

====

# TESTED_SYSTEM: human TLR9 (Homo sapiens (Human), UniProt Q9NR96)
# Sequence (Q9NR96 26-1032): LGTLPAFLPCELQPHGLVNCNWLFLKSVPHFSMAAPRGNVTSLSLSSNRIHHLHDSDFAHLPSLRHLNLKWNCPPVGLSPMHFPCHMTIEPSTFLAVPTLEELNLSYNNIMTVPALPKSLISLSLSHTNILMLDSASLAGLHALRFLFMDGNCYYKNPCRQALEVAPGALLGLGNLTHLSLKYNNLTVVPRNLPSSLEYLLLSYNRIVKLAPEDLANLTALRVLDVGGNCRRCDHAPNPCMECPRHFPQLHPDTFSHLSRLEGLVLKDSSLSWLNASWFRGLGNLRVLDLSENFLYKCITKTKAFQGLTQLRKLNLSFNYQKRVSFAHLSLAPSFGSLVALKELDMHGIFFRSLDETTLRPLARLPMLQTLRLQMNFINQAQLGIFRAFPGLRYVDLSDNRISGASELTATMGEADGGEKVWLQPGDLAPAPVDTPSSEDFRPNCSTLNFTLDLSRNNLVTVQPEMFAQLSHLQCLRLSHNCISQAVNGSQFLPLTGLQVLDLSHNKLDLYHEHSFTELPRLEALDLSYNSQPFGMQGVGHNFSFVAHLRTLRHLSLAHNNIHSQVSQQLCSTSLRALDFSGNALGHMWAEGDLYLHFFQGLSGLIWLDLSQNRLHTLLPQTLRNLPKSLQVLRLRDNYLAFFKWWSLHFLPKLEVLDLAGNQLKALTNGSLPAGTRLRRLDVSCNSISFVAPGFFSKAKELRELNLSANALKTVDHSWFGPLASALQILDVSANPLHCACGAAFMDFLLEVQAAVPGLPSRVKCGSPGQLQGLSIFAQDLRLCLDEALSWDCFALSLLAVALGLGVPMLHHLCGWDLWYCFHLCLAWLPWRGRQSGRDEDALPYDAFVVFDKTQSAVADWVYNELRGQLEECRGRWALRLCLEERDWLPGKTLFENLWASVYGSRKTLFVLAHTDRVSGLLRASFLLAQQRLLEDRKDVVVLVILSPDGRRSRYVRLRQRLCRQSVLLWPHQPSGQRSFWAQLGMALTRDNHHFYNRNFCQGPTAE
# PROTOCOL: TLR9 inhibition reporter assay (HEK-Blue cells, SEAP reporter, ODN2006 stimulation)
# MEASUREMENT_CONDITIONS: read-out: TLR9 IC50, HEK-Blue cells overexpressing human TLR9, ODN2006 5 nM
QUANTITY_NAME: pIC50
Keep it numeric: pIC50 is minus log10 of the concentration in mol/L.

Item: Cc1cc(-c2[nH]c3ccc(C4CCN(C(=O)CN(C)CC(O)c5ccccc5)CC4)cc3c2C(C)C)cc(C)n1 (centres unmarked) [Example 399] Test system: human TLR9 (Homo sapiens (Human), UniProt Q9NR96) Read-out: pIC50 Value: ?
6.16

Item: Cc1cc(-c2[nH]c3ccc(C4CCN(C(=O)C5CC(=O)N(C)C5)CC4)cc3c2C(C)C)cc(F)n1 (centres unmarked) [Example 502] Test system: human TLR9 (Homo sapiens (Human), UniProt Q9NR96) Read-out: pIC50 Value: ?
4.61

Item: Cc1nccc(-c2[nH]c3ccc(C4CCN(C5CCOCC5)CC4)cc3c2C(C)C)c1C [Example 716] Test system: human TLR9 (Homo sapiens (Human), UniProt Q9NR96) Read-out: pIC50 Value: ?
5.72

Item: Cc1cc(-c2[nH]c3ccc(C4CCN(C(CF)CF)CC4)cc3c2C(C)C)cc(C)n1 [Example 473] Test system: human TLR9 (Homo sapiens (Human), UniProt Q9NR96) Read-out: pIC50 Value: ?
6.08

====

# TESTED_SYSTEM: human TLR7 (Homo sapiens (Human), UniProt Q9NYK1)
# PROTOCOL: TLR7 inhibition reporter assay (HEK-Blue cells, SEAP reporter, gardiquimod stimulation)
# Type: cell-based
# MEASUREMENT_CONDITIONS: HEK-Blue cells overexpressing human TLR7, gardiquimod 7.5 μM
pIC50: −log10 of the molar value.
Label yes (1) for high-side pIC50 (at or above 8) and no (0) for low-side pIC50 (below it).

Reported pIC50 at or above 8? Cc1cc(-c2[nH]c3ccc(C4CCN(C(=O)c5ccc6ccccn6c5=O)CC4)cc3c2C(C)C)cc(C)n1 [Example 145]
no (0)

Reported pIC50 at or above 8? CC(C)c1c(-c2ccncc2)[nH]c2ccc(C3CCN(C(=O)CN(C)C)CC3)cc12 [Example 524]
no (0)

Reported pIC50 at or above 8? CO[C@@H]1C[C@H](CO)N(C(=O)CN2CCC(c3ccc4[nH]c(-c5cc(C)nc(C)c5)c(C(C)C)c4c3)CC2)C1 [Example 292]
yes (1)

Reported pIC50 at or above 8? Cc1cc(-c2[nH]c3ccc(C4CCN(CCOc5ccccc5)CC4)cc3c2C(C)C)ccn1 [Example 663]
no (0)

Reported pIC50 at or above 8? Cc1cc(-c2[nH]c3ccc(C4CCN(C(=O)CNCC(C)C)CC4)cc3c2C(C)C)cc(C)n1 [Example 338]
yes (1)

Reported pIC50 at or above 8? CCc1c(-c2ccnc(C)c2)[nH]c2ccc(C3CCN(C(=O)c4ccncc4)CC3)cc12 [Example 591]
no (0)

====

Please respond with reported IC50 for every item in the list.
# TESTED_SYSTEM: human TLR9 (Homo sapiens (Human), UniProt Q9NR96)
# PROTOCOL: TLR9 inhibition reporter assay (HEK-Blue cells, SEAP reporter, ODN2006 stimulation)
# MEASUREMENT_CONDITIONS: read-out: TLR9 IC50, HEK-Blue cells overexpressing human TLR9, ODN2006 5 nM
Give a bare numeral; the unit nM is implied.

Return reported IC50; argument: `CCOc1cc(-c2[nH]c3ccc(C4CCN(C5CCN(CC(C)C)CC5)CC4)cc3c2CC)ccn1`
1280

Return reported IC50; argument: `COC1CN(C(=O)CN2CCC(c3ccc4[nH]c(-c5cc(C)nc(C)c5)c(C(C)C)c4c3)CC2)C1`
759

Return reported IC50; argument: `CNC(C)(C)C(=O)N1CCC(c2ccc3[nH]c(-c4cc(C)nc(C)c4)c(C(C)C)c3c2)CC1`
971

Return reported IC50; argument: `CCc1c(-c2ccnc(Cl)c2)[nH]c2ccc(C3CCN(C4CCN(CC(C)C)CC4)CC3)cc12`
751

Return reported IC50; argument: `COc1ncc(CN2CCC(c3ccc4[nH]c(-c5ccnc(C)c5F)c(C(C)C)c4c3)CC2)cn1`
1310

Return reported IC50; argument: `CCCNC(=O)CN1CCC(c2ccc3[nH]c(-c4cc(C)nc(C)c4)c(C(C)C)c3c2)CC1`
942

Return reported IC50; argument: `Cc1cc(-c2[nH]c3cc(F)c(C4CCNCC4)cc3c2C(C)C)c(F)cn1`
1350

====

Please respond with reported pIC50 for every item in the list.
# TESTED_SYSTEM: human TLR7 (Homo sapiens (Human), UniProt Q9NYK1)
# PROTOCOL: TLR7 inhibition reporter assay (HEK-Blue cells, SEAP reporter, gardiquimod stimulation)
# Assay type: cell-based
# MEASUREMENT_CONDITIONS: HEK-Blue cells overexpressing human TLR7, gardiquimod 7.5 μM
Keep it numeric: pIC50 is minus log10 of the concentration in mol/L.

Return reported pIC50; argument: `Cc1cc(-c2[nH]c3ccc(C4CCN(C(=O)CC5CCOCC5)CC4)cc3c2C(C)C)cc(C)n1`
8.09

Return reported pIC50; argument: Cc1cc(-c2[nH]c3ccc(C4CCN(C(=O)CN(C)C5CCOC5)CC4)cc3c2C(C)C)cc(C)n1 (stereo not shown)
8.02

Return reported pIC50; argument: `CCc1c(-c2ccnc(OC)c2)[nH]c2ccc(C3CCN(C4CCNCC4)CC3)cc12`
6.34

Return reported pIC50; argument: `CC(C)c1c(-c2ccncc2)[nH]c2ccc(C3CCN(C4CCN(C)CC4)CC3)cc12`
7.35

====

# TESTED_SYSTEM: human TLR9 (Homo sapiens (Human), UniProt Q9NR96)
# PROTOCOL: TLR9 inhibition reporter assay (HEK-Blue cells, SEAP reporter, ODN2006 stimulation);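 note: compounds tested over 0.05 nM to 50 µM, 22 h incubation, inhibition taken as SEAP signal drop from agonist plus DMSO wells toward a known inhibitor control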
# MEASUREMENT_CONDITIONS: read-out: TLR9 IC50, HEK-Blue cells overexpressing human TLR9, ODN2006 5 nM
Please respond with reported pIC50 for every item in the list.
Keep it numeric: pIC50 is minus log10 of the concentration in mol/L.

Return reported pIC50; argument: `CCc1c(-c2ccnc(N)c2)[nH]c2ccc(C3CCN(C4CCN(CC(C)C)CC4)CC3)cc12`
7.35

Return reported pIC50; argument: `Cc1cc(-c2[nH]c3ccc(C4CCN(CC(=O)N(C)C)CC4)cc3c2CC(F)F)cc(C)n1`
6.66

Return reported pIC50; argument: `Cc1cc(-c2[nH]c3ccc(C4CCN(C(=O)CNCC(C)C)CC4)cc3c2C(C)C)cc(C)n1`
6.26

Return reported pIC50; argument: `COc1cc(-c2[nH]c3ccc(C4CCN(C5CCOCC5)CC4)cc3c2C(C)C)ccn1`
5.54

Return reported pIC50; argument: `Cc1cc(-c2[nH]c3ccc(C4CCN(Cc5nncn5C)CC4)cc3c2C(C)C)c(C)cn1`
4.70

Return reported pIC50; argument: `Cc1cc(-c2[nH]c3ccc(C4CCN(C(=O)CN5CCNC(=O)C5)CC4)cc3c2C(C)C)cc(C)n1`
5.41

Return reported pIC50; argument: `CCc1c(-c2ccnc(OCCN(C)C)c2)[nH]c2ccc(C3CCN(C4CCN(CC(C)C)CC4)CC3)cc12`
6.51

Return reported pIC50; argument: `COc1cc(OC)nc(CN2CCC(c3ccc4[nH]c(-c5cc(C)ncc5F)c(C(C)C)c4c3)CC2)n1`
5.43

Return reported pIC50; argument: Cc1cc(-c2[nH]c3ccc(C4CCN(C(=O)CN5CCCC(O)C5)CC4)cc3c2C(C)C)cc(C)n1 (centres unmarked)
6.24

Return reported pIC50; argument: `Cc1cc(-c2[nH]c3ccc(C4CCN(CC(=O)N(C)C5CC5)CC4)cc3c2C(C)C)cc(C)n1`
6.46

Return reported pIC50; argument: `Cc1cc(-c2[nH]c3ccc(C4CCN(C(=O)c5ccon5)CC4)cc3c2C(C)C)cc(C)n1`
5.50

Return reported pIC50; argument: `CCc1c(-c2ccnc(C)c2)[nH]c2ccc(C3CCN(C(=O)c4ccnc(F)c4)CC3)cc12`
4.77

Return reported pIC50; argument: Cc1cc(-c2[nH]c3ccc(C4CCN(C5CCN(C(C)C)CC5F)CC4)cc3c2C(C)C)ccn1 (centres unmarked)
6.47

Return reported pIC50; argument: `Cc1cc(-c2[nH]c3ccc(C4CCN(C(=O)CN5CCCC(C)(C)C5)CC4)cc3c2C(C)C)cc(C)n1`
6.03

Return reported pIC50; argument: `CNCCN1CCC(c2ccc3[nH]c(-c4cc(OCCOC)ncc4F)c(C)c3c2)CC1`
6.19

Return reported pIC50; argument: Cc1cc(-c2[nH]c3ccc(C4CCN(C(C)C(=O)N(C)C)CC4)cc3c2CC(F)F)cc(C)n1 (centres unmarked)
5.79
